Hello, the source for this data is patent US8580794B2, in case you need it.

Record form. Attribute: Ki. Fill in for each entry.
target.under.test: GST-Bc1-2 (Homo sapiens, UniProt P10415)
Sequence (P10415 whole entry): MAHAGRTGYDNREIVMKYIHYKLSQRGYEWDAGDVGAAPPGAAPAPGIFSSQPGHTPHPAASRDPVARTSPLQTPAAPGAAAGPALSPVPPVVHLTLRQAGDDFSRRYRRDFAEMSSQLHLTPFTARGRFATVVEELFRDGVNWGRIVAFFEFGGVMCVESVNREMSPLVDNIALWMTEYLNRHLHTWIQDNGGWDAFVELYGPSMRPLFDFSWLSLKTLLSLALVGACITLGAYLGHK
experiment: Time Resolved-Fluorescence Resonance Energy Transfer (TR-FRET) Bcl-2 binding assay with F-Bak peptide probe
protocol.conditions: GST-Bcl-2 1 nM, F-Bak probe 100 nM, Tb-anti-GST 1 nM; '<' = below limit of detection; read-out: TR-FRET Bcl-2 Binding Ki

Answered examples (2):
- CC1(C)CCC(CN2CCN(c3ccc(C(=O)NS(=O)(=O)c4ccc(OCC5CCOC5)c(Cl)c4)c(Oc4cnc5[nH]ccc5c4)c3)CC2)=C(c2ccc(Cl)cc2)C1 (stereo not shown) [Example 323]: 0.104 nM
- CC1(C)CCC(CN2CCN(c3ccc(C(=O)NS(=O)(=O)c4ccc(NC[C@H]5CC[C@@H](O)C5)c([N+](=O)[O-])c4)c(Oc4cnc5[nH]ccc5c4)c3)CC2)=C(c2ccc(Cl)cc2)C1 [Example 158]: < 0.01 nM

Required: Ki, one value per molecule below.
1. CC1(C)CCC(CN2CCN(c3ccc(C(=O)NS(=O)(=O)c4ccc(NC5CCN(C6CCOC6)CC5)c([N+](=O)[O-])c4)c(Oc4cnc5[nH]ccc5c4)c3)CC2)=C(c2ccc(Cl)cc2)C1 (stereo not shown) [Example 143]
2. CN(C)CC(=O)N1CCC(COc2ccc(S(=O)(=O)NC(=O)c3ccc(N4CCN(CC5=C(c6ccc(Cl)cc6)CC(C)(C)CC5)CC4)cc3Oc3cnc4[nH]ccc4c3)cc2Cl)CC1 [Example 295]
3. CC1(C)CCC(CN2CCN(c3ccc(C(=O)NS(=O)(=O)c4ccc(NCC5CCN(S(C)(=O)=O)C5)c([N+](=O)[O-])c4)c(Oc4cnc5[nH]ccc5c4)c3)CC2)=C(c2ccc(Cl)cc2)C1 (stereo not shown) [Example 152]

1. < 0.01 nM
2. < 0.01 nM
3. < 0.01 nM

Hi, could you look up Ki for each item in my list?
1. CC1(C)CCC(CN2CCN(c3ccc(C(=O)NS(=O)(=O)c4ccc(NC(=O)N5CCC(C#N)CC5)c(Cl)c4)c(Oc4cnc5[nH]ccc5c4)c3)CC2)=C(c2ccc(Cl)cc2)C1 [Example 393]
2. CC1(C)CCC(CN2CCN(c3ccc(C(=O)NS(=O)(=O)c4cnc(NCC5CN(C6CC6)CCO5)c(Cl)c4)c(Oc4cnc5[nH]ccc5c4)c3)CC2)=C(c2ccc(Cl)cc2)C1 (stereo not shown) [Example 335]
3. CC1(C)CCC(CN2CCN(c3ccc(C(=O)NS(=O)(=O)c4ccc(N[C@H]5CC[C@@H](N6CCOCC6)CC5)c([N+](=O)[O-])c4)c(Oc4cnc5[nH]ccc5c4)c3)CC2)=C(c2ccc(Cl)cc2)C1 [Example 39]
4. CC1(C)CCC(CN2CCN(c3ccc(C(=O)NS(=O)(=O)c4ccc(NC[C@H]5CC[C@H](C(=O)O)CC5)c([N+](=O)[O-])c4)c(Oc4cnc5[nH]ccc5c4)c3)CC2)=C(c2ccc(Cl)cc2)C1 [Example 380]
5. COCCOCCS(=O)(=O)c1ccc(S(=O)(=O)NC(=O)c2ccc(N3CCN(CC4=C(c5ccc(Cl)cc5)CC(C)(C)CC4)CC3)cc2Oc2cnc3[nH]ccc3c2)cc1[N+](=O)[O-] [Example 59]
6. CC1(C)CCC(CN2CCN(c3ccc(C(=O)NS(=O)(=O)c4cnc(OCC5(F)CCN(C6COC6)CC5)c(Cl)c4)c(Oc4cnc5[nH]ccc5c4)c3)CC2)=C(c2ccc(Cl)cc2)C1 [Example 277]
7. Cc1nc2c(s1)CC(COc1ncc(S(=O)(=O)NC(=O)c3ccc(N4CCN(CC5=C(c6ccc(Cl)cc6)CC(C)(C)CC5)CC4)cc3Oc3cnc4[nH]ccc4c3)cc1Cl)CC2 (stereo not shown) [Example 387]
8. CC1(C)CC(c2ccc(Cl)cc2)=C(CN2CCN(c3ccc(C(=O)NS(=O)(=O)c4cnc(OCC5CCOCC5)c(C#N)c4)c(Oc4cnc5[nH]ccc5c4)c3)CC2)CO1 [Example 35]

0.263 nM
0.15 nM
0.012 nM
< 0.01 nM
0.203 nM
< 0.01 nM
< 0.01 nM
< 0.01 nM

Hi there! I need Ki for each item below, if you can.
1. CC1(C)CCC(CN2CCN(c3ccc(C(=O)NS(=O)(=O)c4cnc(OCC5CCN(CC#N)CC5)c(Cl)c4)c(Oc4cnc5[nH]ccc5c4)c3)CC2)=C(c2ccc(Cl)cc2)C1 [Example 253]
2. CC1(C)CCC(CN2CCN(c3ccc(C(=O)NS(=O)(=O)c4ccc5c(c4)nnn5CC4CCOCC4)c(Oc4cnc5[nH]ccc5c4)c3)CC2)=C(c2ccc(Cl)cc2)C1 [Example 384]
3. CC1(C)CCC(c2ccc(Cl)cc2)=C(CN2CCN(c3ccc(C(=O)NS(=O)(=O)c4ccc(OCC5(F)CCOCC5)c([N+](=O)[O-])c4)c(Oc4cnc5[nH]ccc5c4)c3)CC2)C1 [Example 119]
4. CC1(C)CCC(CN2CCN(c3ccc(C(=O)NS(=O)(=O)c4ccc(OCC5(F)CCOCC5)c(Cl)c4)c(Oc4cnc5[nH]ccc5c4)c3)CC2)=C(c2ccc(Cl)cc2)C1 [Example 286]
5. O=C(NS(=O)(=O)c1ccc(NC[C@H]2CC[C@H](O)CC2)c([N+](=O)[O-])c1)c1ccc(N2CCN(CC3=C(c4ccc(Cl)cc4)CCC(F)(F)C3)CC2)cc1Oc1cnc2[nH]ccc2c1 [Example 324]
6. O=C(NS(=O)(=O)c1ccc(NCC2CCOCC2)c([N+](=O)[O-])c1)c1ccc(N2CCN(CC3=C(c4ccc(Cl)cc4)CC4(CC3)CC4)CC2)cc1Oc1cnc2[nH]ccc2c1 [Example 328]

["0.052 nM", "0.704 nM", "< 0.01 nM", "< 0.01 nM", "< 0.01 nM", "< 0.01 nM"]
